What GI50 was measured for each of the following?
Test system: UACC-62 melanoma
Test: NCI tumour cell line growth inhibition, 48 h

// returns reported GI50 for input CC(=O)Oc1ccc(C2=Cc3ccc(OC(C)=O)cc3OC2C)cc1 (centres undefined)
4610 nM

// returns reported GI50 for input CC(=O)NC1C(O[C@H]2C[C@H]3[C@@H]4CC=C5C[C@@H](O)CC[C@]5(C)[C@H]4CC[C@]3(C)[C@H]2[C@H](C)C(=O)CCC(C)C)OCC(O)C1O (some centres undefined)
913 nM

// returns reported GI50 for input CCSCC1CC(O)(c2ccccc2)C(c2ccccc2)C(c2ccc(F)cc2)O1 (centres undefined)
1910 nM

// returns reported GI50 for input CCCCCC(=O)O[C@]1(C(C)=O)CCC2C3CCC4=CC(=O)CC[C@]4(C)C3CC[C@@]21C (some centres undefined)
1630 nM

----------
What log10 TGI was measured for each of the following?
System: SNB-75 CNS
Assay: NCI tumour cell line growth inhibition, 48 h
Transform log10 | Measure TGI | Unit µM

// returns reported log10 TGI for input COc1ccc(-c2nc3ccc(Cc4ccc5nc(-c6ccc(OC)cc6)[nH]c5c4)cc3[nH]2)cc1
0.09

// returns reported log10 TGI for input COc1ccc(-c2cc(/C=C/C(=O)c3ccc(N)cc3)[nH]n2)cc1OC
1.15

// returns reported log10 TGI for input COc1cc(/C=C/c2cc(/C=C/c3ccc(O)c(OC)c3)n(C(=O)c3ccccc3Br)n2)ccc1O
1.19

// returns reported log10 TGI for input O=S(=O)(/N=C(\NO)Nc1ccc(Cl)cc1)c1cc(C(F)(F)F)cc(C(F)(F)F)c1
1.52

// returns reported log10 TGI for input COc1ccc(/C=C2\C(=O)N(NC(C)=O)c3ccccc32)cc1
1.97

----------
Test system: HCT-15 colon
Assay: NCI tumour cell line growth inhibition, 48 h
readout: TGI

For HCT-15 colon, provide TGI of COC(=O)C(C(=O)C(=O)Nc1c(Cl)cc([N+](=O)[O-])cc1Cl)c1csc(-n2nc(C3=CCCCC3)cc2-c2ccccc2)n1 (stereo not given) please.
> 100 µM

For HCT-15 colon, provide TGI of CCN(CC)CCNc1ccc([N+](=O)[O-])c2nc3ccc(OC)cc3c(NCCN(CC)CC)c12 please.
2.52 µM

For HCT-15 colon, provide TGI of Cc1c(C)c(S(=O)(=O)N(CCCCN)OCCCN)c(C)c2c1OC(C)(C)CC2 please.
46.9 µM

For HCT-15 colon, provide TGI of NC1=NC(Cn2nc(-c3ccccc3)c3ccccc3c2=O)=NNC(=O)N1 please.
> 100 µM

For HCT-15 colon, provide TGI of Cc1cnc(C(=O)NNc2nc3sc4c(c3c(=O)[nH]2)C(C)CCC4)cn1 (stereo not given) please.
23.6 µM

For HCT-15 colon, provide TGI of Cc1ccc(NC(=O)c2cc(S(=O)(=O)Nc3nnc(-c4ccccc4)c(-c4ccccc4)n3)c(SCc3ccccc3)cc2Cl)cc1 please.
39.1 µM

For HCT-15 colon, provide TGI of O=C1c2ccccc2N2OC3(N4CCOCC4)CCCC3C12c1ccccc1 (stereo not given) please.
> 100 µM

For HCT-15 colon, provide TGI of O=C1c2ccccc2C(=O)c2[nH]cnc21 please.
> 100 µM

For HCT-15 colon, provide TGI of Cc1[nH]n(-c2nc3c(c(=O)[nH]2)CCCC3)c(=O)c1CCO please.
> 100 µM

For HCT-15 colon, provide TGI of C[C@@H]1CC[C@]2(C)C3(C)CC[C@]2(OC3=O)[C@@]12CC(c1ccoc1)OC2=O (stereo not given in full) please.
> 100 µM

For HCT-15 colon, provide TGI of COC12C(COC(=O)NCCO)C3=C(C(=O)C(C)=C(N)C3=O)N1CC1NC12 (stereo not given) please.
> 264 µM

For HCT-15 colon, provide TGI of CCO/C=C1\SC(=S)N(c2ccc(OCC)cc2)C1=O please.
> 100 µM

For HCT-15 colon, provide TGI of COc1ccccc1C1c2cc3c(cc2OC2(OC)COC(=O)C12)OCO3 (stereo not given) please.
> 100 µM

For HCT-15 colon, provide TGI of CC(C)(C)OC(=O)N(CCCCNC(=O)C(F)(F)F)CCCNC(=O)C(F)(F)F please.
> 100 µM

For HCT-15 colon, provide TGI of CC(=O)OC1COC(N2CCc3cc([N+](=O)[O-])ccc32)C(OC(C)=O)C1OC(C)=O (stereo not given) please.
> 100 µM

For HCT-15 colon, provide TGI of O=C1C2C3C=CC(C2C(=O)N1CO)C1C2C(=O)N(CO)C(=O)C2C31 (stereo not given) please.
> 62.9 µM

For HCT-15 colon, provide TGI of NC1=NC2(COC(c3ccccc3)(c3ccccc3)c3ccccc3)OC(COC(c3ccccc3)(c3ccccc3)c3ccccc3)C(O)C2O1 (stereo not given) please.
> 100 µM

For HCT-15 colon, provide TGI of COc1ccc(-c2[nH]c3ccc(OC)cc3c2C=C(C#N)C#N)cc1 please.
> 100 µM

For HCT-15 colon, provide TGI of O=C(CSCC(=O)N/N=C/c1cccc(O)c1)N/N=C/c1cccc(O)c1 please.
> 100 µM

For HCT-15 colon, provide TGI of CCN1CCC(O)(c2ccc([N+](=O)[O-])cc2)C(C(=O)c2ccc([N+](=O)[O-])cc2)C1 (stereo not given) please.
52.9 µM

----------
What TGI was measured for each of the following?
System: HL-60(TB) leukemia
Assay: NCI tumour cell line growth inhibition, 48 h

// returns reported TGI for input COc1ccccc1C1c2cc3c(cc2OC2(OC)COC(=O)C12)OCO3 (stereo not drawn)
18.5 µM

// returns reported TGI for input [B]C(=O)NC(CC(C)C)C(=O)NCC(=O)NC1c2ccsc2C(=O)C1O (stereo not drawn) (tested in a mixture with another compound)
> 100 µM

// returns reported TGI for input COCCN(CCOC)c1nc(-c2ccccc2)nc2ccccc12
> 100 µM

// returns reported TGI for input CCCCCCCCCCCCCCCCCCNc1ccn(C2OC(COP(=O)(O)OCC3OC(n4ccc(N)nc4=O)C(O)C3O)C(O)C2O)c(=O)n1 (stereo not drawn)
> 100 µM

// returns reported TGI for input NC(N)=NCCCC(NCc1c2ccccc2nc2ccccc12)C(=O)O (stereo not drawn)
44.1 µM

// returns reported TGI for input CC(C)[C@@H]1CC[C@]2(CO2)[C@@H]2C(=O)OCC(C(=O)O)=C[C@H]21
1.7 µM

// returns reported TGI for input CC(C)(C)OC(=O)N(CCCCNC(=O)C(F)(F)F)CCCNC(=O)C(F)(F)F
> 100 µM

// returns reported TGI for input O=C1N[C@@H]2CCCC[C@@H]2C12CCCCC2
> 100 µM

----------
System: EKVX NSCLC
Test: NCI tumour cell line growth inhibition, 48 h
readout: TGI

// returns reported TGI for input COc1ccc(/C(Nc2ccccc2)=C(\CCl)c2ccccc2)cc1OC
> 100 µM

// returns reported TGI for input CCOc1cnc(C(O)(c2ccccc2)c2ccccc2)o1
> 100 µM

// returns reported TGI for input N#Cc1c(NC(=O)C(F)(F)F)sc2c3c(=O)c4ccccc4c(=O)c=3oc3ccccc3c12
65.4 µM

// returns reported TGI for input O=C(CCc1cc(O)cc(O)c1)NCCc1cc(O)cc(OCc2ccccc2)c1
> 100 µM

// returns reported TGI for input COc1cc(/C=C2\NC(=O)C(Cc3cc(OC)c(OC)c(C)c3OC)N(C(C)=O)C2=O)c(OC)c(C)c1OC (stereo not given)
> 100 µM

// returns reported TGI for input COC(=O)/C=C/c1ccc(OP(=O)(O)O)c(OC)c1
> 100 µM

// returns reported TGI for input COC(=O)C1=C(C(=O)OC)C2(c3ccccc3)OC1(c1ccccc1)c1cc3ccccc3cc12
3.33 µM

// returns reported TGI for input O=C1c2cc3c(cc2-c2c1c1ccc(Cl)cc1c(=O)n2C[C@H](O)CO)OCO3
1.52 µM

// returns reported TGI for input NC(N)=NCCCC(NCc1c2ccccc2nc2ccccc12)C(=O)O (stereo not given)
> 100 µM

// returns reported TGI for input CCCCCC/C=C\CCCCCCCCC(=O)c1cccc(OC)c1OC
> 100 µM

----------
What TGI was measured for each of the following?
Test system: SN12C renal
Assay: NCI tumour cell line growth inhibition, 48 h

// returns reported TGI for input Oc1c(N2CCCCC2)cc(-c2cc(N3CCCCC3)c(O)c3ccccc23)c2ccccc12
> 100 µM

// returns reported TGI for input CC(N)(CC(O)(C(F)(F)Cl)C(F)(F)Cl)C(=O)O (centres undefined)
> 10 µM

// returns reported TGI for input COc1cc(/C=C2\NC(=O)C(Cc3cc(OC)c(OC)c(C)c3OC)N(C(C)=O)C2=O)c(OC)c(C)c1OC (centres undefined)
> 100 µM

// returns reported TGI for input C=CCNC(=O)C(C)C1CCC2(C)C=CC(=O)C(C)=C2C1O (centres undefined)
> 100 µM

// returns reported TGI for input CN1C(=O)CC(=O)N1/C(=C/c1ccccc1)c1ccccc1
> 100 µM

// returns reported TGI for input COC(=O)/C=C/c1ccc(OP(=O)(O)O)c(OC)c1
> 100 µM

// returns reported TGI for input CCCCCCCCCCCC[C@@H](O)[C@H]1CC[C@H]([C@H](O)CC[C@H](O)[C@@H]2CC[C@@H](CCCCCCCC3=C[C@H](C)OC3=O)O2)O1
> 50 µM

// returns reported TGI for input Cc1nc2ccccc2c(=O)n1/N=C(\N=Nc1ccccc1Cl)c1ccccc1Cl
> 100 µM

// returns reported TGI for input Cn1c(=O)c2nc3sc4c(n3c2n(C)c1=O)C(=O)c1ccccc1C4=O
> 87.5 µM
